- testedTarget: Translocator protein (Rattus norvegicus)
- Sequence (P16257 whole entry, looked up): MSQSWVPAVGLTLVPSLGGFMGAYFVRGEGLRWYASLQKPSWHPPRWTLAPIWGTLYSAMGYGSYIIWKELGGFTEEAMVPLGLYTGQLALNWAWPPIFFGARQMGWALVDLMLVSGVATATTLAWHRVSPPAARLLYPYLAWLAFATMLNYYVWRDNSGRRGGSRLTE
- protocol: Displacement of [3H]-PK 11195 from peripheral (mitochondrial) benzodiazepine receptor
Record form. Attribute: pIC50. Fill in for each entry.
Numbers only, as −log10 of the molar value.

Known pIC50 results, listed for orientation:
COc1ccc(C2=C(OC(C)=O)c3cccn3-c3ccc(Cl)cc3S2)cc1	6.62
CC(=O)OC1=C(c2ccccc2)Sc2ccc(Cl)cc2-n2cccc21	6.25
COc1ccc(C2=C(OC(C)=O)c3cccn3-c3ccccc3S2(=O)=O)cc1	6.19
COc1ccc(C2=C(OC(C)=O)c3cccn3-c3ccccc3[S+]2[O-])cc1 (stereo unspecified)	5.68
COc1ccc(C2=C(OC(C)=O)c3cccn3-c3cccc(Cl)c3S2)cc1	7.70

Each of the following entries comes with a recorded value; kindly state pIC50 for each.
1. CC(=O)OC1=C(c2ccccc2)Sc2c(Cl)cccc2-n2cccc21
2. CCC(=O)OC1=C(c2ccc(OC)cc2)Sc2ccc(C(F)(F)F)cc2-n2cccc21
3. CCCC(=O)OC1=C(c2ccccc2)Sc2ccccc2-n2cccc21

Reply:
1: 8.10; 2: 5.53; 3: 7.66

Each of the following entries comes with a recorded value; kindly state pIC50 for each.
1. COc1ccc(C2=C(OC(=O)N(C)C)c3cccn3-c3cc(Cl)ccc3S2)cc1
2. CS(=O)(=O)OC1=C(c2ccccc2)Sc2ccccc2-n2cccc21
3. CC(=O)OC1=C(c2ccccc2)Sc2ccccc2-n2cccc21
4. COc1ccc(C2Sc3ccccc3-n3cccc3C2=O)cc1 (stereo unspecified)
5. COc1ccc(C2=C(OS(C)(=O)=O)c3cccn3-c3ccccc3S2)cc1
6. COc1ccc(C2=C(OC(=O)N(C)C)c3cccn3-c3ccccc3S2)cc1

Reply:
1: 6.77; 2: 7.22; 3: 7.70; 4: 5.68; 5: 7.02; 6: 8.05

Query: Notebook entry, Translocator protein (Rattus norvegicus) assay: pIC50 of CCC(=O)OC1=C(c2ccc(OC)cc2)Sc2ccccc2-n2cccc21 = ?
Reply: 7.52
